This listing pairs variants with measured polymerase ribozyme fitness (log ratio).
B1: TPR t1 (parent)
chain: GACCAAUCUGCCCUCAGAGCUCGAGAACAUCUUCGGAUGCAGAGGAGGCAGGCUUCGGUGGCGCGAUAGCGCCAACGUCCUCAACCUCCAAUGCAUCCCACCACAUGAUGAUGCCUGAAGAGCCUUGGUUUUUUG

Variants of: B1
Assay Info: polymerase ribozyme fitness, log enrichment relative to wild type (log ratio); higher = more active; in vitro selection for triplet polymerase activity
Reply: number alone, nothing else.

Ordered Residues: GACCAAUCUGCCCUCAGAGCUCGAGAACAUCUUCGGAUGCAGAGGAGGCAGGCUUCGGUGACGCGAUAGCGCCAACGUCCUCAAGCUCCAAUGCAUCCCACCACAUGAUGAUGCCUGAAGAGCCUUGGUUUUUUG [G61A C85G]
polymerase ribozyme fitness (log ratio): 0.134
//
Ordered Residues: GACCAAGCUUCCCUCAGAGCUCGAGAACAUCUUCGGAUGCAGAGGAGGCAGGCUUCGGUGGCGCGAUAGCGCCAACGCCCUCAACCUCCAAUGCAUCCCAACACAUGAUGAUGCCUGAAGAACCUUGGUUUUUUG [U7G G10U U78C C101A G122A]
polymerase ribozyme fitness (log ratio): -1.81
//
Ordered Residues: GACCAAUCUGCCCUCAGAGCUCGAGAACAUCUUCGGAUGCAGAGGAGGCCGGCUUCGGUGGCGCGAUAGCGCCAACGUCCUCAACCUCCAAUGUAUCCCACCACAUGAUGAUGCCUGAAGAGCCUUGGUUUUUUG [A50C C94U]
polymerase ribozyme fitness (log ratio): -0.435
//
Ordered Residues: GACCAAUCUGCCCUCAGAGCUCGAGAACAUCUUCGGAUGCAGAGGAGGCAGGCUUCGGUGGCGCGAUAGCGCAAACGUCCUCAACCUCCAAUGCAUCCCACCACAGGAUCAUGCCUGAAGAGCCUUGGUUUUUUG [C73A U106G G110C]
polymerase ribozyme fitness (log ratio): -4.6
//
Ordered Residues: GACCAAUCUGCCCUCAGAGCUCGAGAACAUCUUCGGAUGCAGAGGAGGCAGGCUUCGGUGGCGCGAUAGCGCCAACGUCCUCAACCUCCAGUGCAUCCCACCACAUGAUGAUGCCUGAAGAGCCAUGGUUUUUUG [A91G U125A]
polymerase ribozyme fitness (log ratio): -0.619
//
Ordered Residues: GACCAAUCUGACGUCAGAGUUCGAGAACAUCUUCGGAUGCAGAGGAGGCAGGUUUCGGUGGCGUGAUAGCGCCAACGGCCUCAACCUCCAAUGCAUCCCACCACAUGAUGAUGCCUGAAGAGCCUUGGUUUUUUG [C11A C13G C20U C53U C64U U78G]
polymerase ribozyme fitness (log ratio): -3.27
//
Ordered Residues: GACCAACCUGCCCUCAGAGCUCGAGAACAUCUUCGGAUGCAUAGGAAGCAGGCUUCGGUGGCGCGAUAGCGCCAACGUCCUCAACCUCCAAUGCAUCCCACCACAUGAUGAUGCCUGAAGAGCCUUGGUUUUUUG [U7C G42U G47A]
polymerase ribozyme fitness (log ratio): -1.32
//
Ordered Residues: GACCAAUCUGCCCUCAGAGCUCGAGAACAUCUUCGGAUGCAGAGGAGGCAGGCUUCGGUGGCGCGAUAACGCCAACGUCCUCAACCUCCAAUACAUCCCACCACAUGAUGAUCCCUGAAGAGCCUUGGUUUUUUG [G69A G93A G113C]
polymerase ribozyme fitness (log ratio): -6.22

Challenge: I would be grateful if you could share the reported polymerase ribozyme fitness (log ratio) for GACCAAUCUGCCCUCAGAGCUCGAGAACAUCUUCGGAUGCAGAGGAGGCAGGCUUCGGUGGCGCGAUAGCGCCAACGUCCUCAACCUCCAAUGCAUCCCACCACAUGAUGAUGCCUUAAGAGCCUUGGUUGUUUG [G117U U131G] .
Response given: -4.64

Challenge: Which measured polymerase ribozyme fitness (log ratio) value corresponds to GACCAAUCUGCCCUCAGAGCUCGAGAACAUCUUCGGAUGCAGAGGAGGCAGGCUUCGGUGGUGCGAUAGCGCCAACGUCCUCAACCUCCAAUGCAUGCCACCACAUGAUGAUGCCUGAAGUGCCUUGGUUUUUUG [C62U C97G A121U] ?
Response given: -2.46

Challenge: What value of polymerase ribozyme fitness (log ratio) has been recorded for this entry: GACCAAUUUGCCCUCAGAGCUCGAGAACAUCUUCGGAUGCAGAGGAGGCAGGCUUCGGUGGCGCGAUAGCGCCAACGUCCUCAACCUCCAAUGCAUCCCACCACAUGAUGAUGCCUAAUGAGUCUUGGUUUUGUG [C8U G117A A119U C123U U133G]
Response given: -1.22

Source of measurements: the RNAGym collection of RNA variant scans (doi:10.1073/pnas.2313332121)
